Some molecules, each annotated with its measured IC50.
tested on: CCRF-HSB-2; test: Antiproliferative effects on CCRF-HSB-2 (human leukemia) cells.; assay type: functional, cell-based

CHEMICAL_STRING: Nc1ncnc2c1ncn2[C@H]1S[C@H](CO)[C@@H](O)[C@@H]1O
SIGN: >
IC50, µg/mL: 100
//
CHEMICAL_STRING: Cc1cn([C@H]2S[C@H](CO)[C@@H](O)[C@@H]2O)c(=O)[nH]c1=O
SIGN: =
IC50, µg/mL: 42
//
CHEMICAL_STRING: CCc1cn([C@@H]2S[C@H](CO)[C@@H](O)[C@@H]2O)c(=O)[nH]c1=O
SIGN: >
IC50, µg/mL: 100
//
CHEMICAL_STRING: Nc1nc2c(ncn2COC(CO)CO)c(=O)[nH]1
SIGN: =
IC50, µg/mL: 17
//
CHEMICAL_STRING: O=c1[nH]c(=O)n([C@@H]2S[C@H](CO)[C@@H](O)[C@@H]2O)cc1/C=C/Cl
SIGN: >
IC50, µg/mL: 100
